Below are Specificity values recorded for Adrenergic receptor beta (Rattus norvegicus) (UniProt P18090+P10608+P26255).

QUERY: Give its Specificity value. Item: Cc1cccc(NCC(O)CON=C(C2CC2)C2CC2)c1 (stereo unspecified)
RESULT: > 200

QUERY: Give its Specificity value. Item: OC(CNc1ccccc1-c1ccccc1)CON=C(C1CC1)C1CC1 (stereo unspecified)
RESULT: > 100

QUERY: Give its Specificity value. Item: OC(CNc1nc2ccccc2[nH]1)CON=C(C1CC1)C1CC1 (stereo unspecified)
RESULT: > 7580

QUERY: Give its Specificity value. Item: OC(CNc1ccc(C(F)(F)F)cc1)CON=C(C1CC1)C1CC1 (stereo unspecified)
RESULT: > 7250

QUERY: Give its Specificity value. Item: OC(CNc1cccc(I)c1)CON=C(C1CC1)C1CC1 (stereo unspecified)
RESULT: > 160

QUERY: Give its Specificity value. Item: OC(CNc1nc2ccccc2s1)CON=C(C1CC1)C1CC1 (stereo unspecified)
RESULT: > 29400

* * *

Task for the reader: assign each of the following compounds its reported Kb.
Species: Cavia porcellus
measurement.notes: Ionotropic effect in electrically driven left atrial preparation (Atria isolated from guinea pig) and is expressed in pA2.
assay.conditions: Cardiac atrium, read-out: pA2 (converted)
All answers are understood in µM, so give the number only.

QUERY: Give its Kb value. Item: OC(CNc1ccc(Br)cc1)CON=C(C1CC1)C1CC1 (stereo unspecified)
RESULT: 0.1

QUERY: Give its Kb value. Item: OC(CNc1nc2ccccc2[nH]1)CON=C(C1CC1)C1CC1 (stereo unspecified)
RESULT: 0.1

QUERY: Give its Kb value. Item: OC(CNc1ccc(Cl)cc1)CON=C(C1CC1)C1CC1 (stereo unspecified)
RESULT: 0.126

QUERY: Give its Kb value. Item: CCCCc1ccc(NCC(O)CON=C(C2CC2)C2CC2)cc1 (stereo unspecified)
RESULT: 0.251

QUERY: Give its Kb value. Item: Cc1cccc(NCC(O)CON=C(C2CC2)C2CC2)c1 (stereo unspecified)
RESULT: 0.126

QUERY: Give its Kb value. Item: OC(CNc1ccc(I)cc1)CON=C(C1CC1)C1CC1 (stereo unspecified)
RESULT: 0.0631

QUERY: Give its Kb value. Item: O=[N+]([O-])c1ccc(NCC(O)CON=C(C2CC2)C2CC2)cc1 (stereo unspecified)
RESULT: 0.251

QUERY: Give its Kb value. Item: OC(CNc1ccc(C(F)(F)F)cc1)CON=C(C1CC1)C1CC1 (stereo unspecified)
RESULT: 0.126

QUERY: Give its Kb value. Item: OC(CNc1ccc(F)cc1)CON=C(C1CC1)C1CC1 (stereo unspecified)
RESULT: 1.26

QUERY: Give its Kb value. Item: OC(CNc1ccccc1-c1ccccc1)CON=C(C1CC1)C1CC1 (stereo unspecified)
RESULT: 25.1

QUERY: Give its Kb value. Item: O=C(O)c1ccc(NCC(O)CON=C(C2CC2)C2CC2)cc1 (stereo unspecified)
RESULT: 0.631

QUERY: Give its Kb value. Item: OC(CNc1ccccc1I)CON=C(C1CC1)C1CC1 (stereo unspecified)
RESULT: 2.51

QUERY: Give its Kb value. Item: OC(CNc1cccc(I)c1)CON=C(C1CC1)C1CC1 (stereo unspecified)
RESULT: 3.16

QUERY: Give its Kb value. Item: OC(CNc1ccc(-c2ccccc2)cc1)CON=C(C1CC1)C1CC1 (stereo unspecified)
RESULT: 0.0398

QUERY: Give its Kb value. Item: OC(CNc1nc2ccccc2s1)CON=C(C1CC1)C1CC1 (stereo unspecified)
RESULT: 0.0251

QUERY: Give its Kb value. Item: Cc1ccccc1NCC(O)CON=C(C1CC1)C1CC1 (stereo unspecified)
RESULT: 0.251
